system: U251 glioblastoma
# output must be one of active, inactive

The examples below pair each entry with its known result.
compound=O=C(c1cc(Cc2n[nH]c(=O)c3ccccc23)ccc1F)N1CCN(C(=O)C2CC2)CC1 class_name=inactive
compound=N#CCNC(=O)c1ccc(-c2ccnc(Nc3ccc(N4CCOCC4)cc3)n2)cc1 class_name=inactive

**Query** How did this test come out for COc1ccc(COc2cc3oc(=O)c4cc(C(C)O)ccc4c3cc2OC)cc1 (centres undefined) ?
**Result** inactive

**Query** For this compound, state the assay outcome: COCCOCCOCCOCCOC(=O)OC[n+]1ccc(NC(=NCCCCCCOc2ccc(Cl)cc2)NC#N)cc1
**Result** active
